Would you mind telling me the reported inhibition of each entry?
target: Aminopeptidase N (Plasmodium falciparum (isolate 3D7)) (UniProt O96935); test: malaria alanyl aminopeptidase activity blockers – biochemical, fluorogenic H-Leu-NHMec substrate, 1536-well (AID 1445); details: recombinant M1AAP, H-Leu-NHMec fluorogenic kinetic assay; at 30 µM, active compounds read high unless noted;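 also: plate controls were DMSO full reaction for no effect and no enzyme background for full effect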
Sequence (O96935 whole entry, looked up): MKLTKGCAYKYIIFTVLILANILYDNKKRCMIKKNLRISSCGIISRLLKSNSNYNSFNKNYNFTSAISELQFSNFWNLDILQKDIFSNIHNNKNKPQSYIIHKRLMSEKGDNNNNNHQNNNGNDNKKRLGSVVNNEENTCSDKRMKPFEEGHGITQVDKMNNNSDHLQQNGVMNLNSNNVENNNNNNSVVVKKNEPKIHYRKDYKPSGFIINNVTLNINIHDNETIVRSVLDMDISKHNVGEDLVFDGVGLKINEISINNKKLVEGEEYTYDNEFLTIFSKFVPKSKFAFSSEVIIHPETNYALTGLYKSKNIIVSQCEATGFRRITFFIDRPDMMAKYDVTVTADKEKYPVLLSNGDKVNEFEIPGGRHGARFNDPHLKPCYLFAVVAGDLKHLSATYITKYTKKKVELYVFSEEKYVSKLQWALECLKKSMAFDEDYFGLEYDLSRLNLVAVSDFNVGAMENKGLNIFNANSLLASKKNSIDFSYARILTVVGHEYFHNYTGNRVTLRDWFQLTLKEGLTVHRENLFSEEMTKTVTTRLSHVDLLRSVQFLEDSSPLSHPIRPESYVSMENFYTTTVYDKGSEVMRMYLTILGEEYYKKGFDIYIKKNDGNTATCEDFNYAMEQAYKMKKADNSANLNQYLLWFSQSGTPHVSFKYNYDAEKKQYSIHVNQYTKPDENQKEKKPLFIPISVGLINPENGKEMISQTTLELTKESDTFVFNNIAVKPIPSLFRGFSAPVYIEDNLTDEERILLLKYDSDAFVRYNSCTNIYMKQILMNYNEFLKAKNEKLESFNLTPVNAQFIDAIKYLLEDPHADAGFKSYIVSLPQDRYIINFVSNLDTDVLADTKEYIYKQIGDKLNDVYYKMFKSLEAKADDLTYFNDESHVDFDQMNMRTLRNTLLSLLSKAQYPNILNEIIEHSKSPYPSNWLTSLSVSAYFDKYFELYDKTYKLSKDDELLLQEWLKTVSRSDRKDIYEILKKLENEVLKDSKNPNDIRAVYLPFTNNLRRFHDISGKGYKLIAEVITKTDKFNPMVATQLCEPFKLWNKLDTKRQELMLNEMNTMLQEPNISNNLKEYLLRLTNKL
Out of some 220,000 compounds screened, about 910 (0.41%) were called active. The entries come from a sample that favours actives as a whole. Results with a measured potency or affinity are listed apart.
Answer with a number only, understood to be in %.

response.value for COc1ccc(/C=C2/SC(=O)N(CCC(=O)Nc3ccccc3)C2=O)cc1OC (field: inhibition) = -3.04

response.value for O=c1c(-c2c(O)cc(O)c3c(=O)cc(-c4ccc(O)cc4)oc23)c(-c2ccc(O)cc2)oc2cc(O)cc(O)c12 (field: inhibition) = 12

response.value for Cc1nnc(SCc2ccc(Cl)cc2Cl)[nH]c1=O (field: inhibition) = 4.54

response.value for Cc1[nH]c(=O)c(C#N)c(C)c1Cc1ccc(Cl)cc1Cl (field: inhibition) = 4.22

response.value for COc1cc(-c2cc(=O)c3c(O)cc(O)cc3o2)ccc1O (field: inhibition) = 12.4

response.value for Cc1ccccc1-c1cnn(-c2cccc([N+](=O)[O-])c2)c1N (field: inhibition) = 1.77

response.value for CC1CCCCN1C(=O)c1cc2nc(-c3ccccc3)cc(-c3ccccc3)n2n1 (stereo not given) (field: inhibition) = 2.04

response.value for COc1cc(/C=C2\SC(=S)N(N(C)c3ccccc3)C2=O)ccc1O (field: inhibition) = 3.49

response.value for COc1cc(/C=C2\SC(=S)N(Nc3ccccc3)C2=O)cc(OC)c1OC (field: inhibition) = 0.45

response.value for O=[N+]([O-])c1ccc2c(c1)oc1ccccc12 (field: inhibition) = -3.55

###

target: Aminopeptidase N (Plasmodium falciparum (isolate 3D7)) (UniProt O96935); assay: malaria alanyl aminopeptidase activity blockers – biochemical, fluorogenic H-Leu-NHMec substrate, 1536-well (AID 1445); settings: recombinant M1AAP, H-Leu-NHMec fluorogenic kinetic assay; at 30 µM, active compounds read high unless noted;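 also: plate controls were DMSO full reaction for no effect and no enzyme background for full effect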
In all, about 220,000 compounds went through this assay and about 910 (0.41%) were called active. The list comes from a sample in which actives are over-represented; it also holds close analogues and randomly drawn compounds. Measured potencies and affinities stand elsewhere.
Would you mind telling me the reported inhibition of each entry?
Answer with a number only, understood to be in %.

response.value for COc1ccc2[nH]c(=O)c(NC(N)=S)nc2c1 (field: inhibition) = 16.1

response.value for O=C1NC(=S)S/C1=C\c1coc2ccccc2c1=O (field: inhibition) = 14.4

response.value for Cc1ccc(S(=O)(=O)Nc2cccc(-c3cn4ccsc4n3)c2)cc1 (field: inhibition) = 7.08

response.value for NC(=O)CSc1nc2scc(-c3ccco3)c2c(=O)n1-c1ccccc1 (field: inhibition) = 18

response.value for CC(C(=O)N1CCN(C)CC1)N1C(=O)c2ccccc2C1=O (stereo unspecified) (field: inhibition) = 7.24

response.value for COc1cc(OC)c2c(-c3ccccc3)cc(=O)oc2c1C(CC(=O)N1CCN(c2ccccc2)CC1)c1ccc2c(c1)OCO2 (stereo unspecified) (field: inhibition) = 5.15

response.value for COCCCNc1nc2ccccc2[nH]c1=O (field: inhibition) = 7.88

response.value for CCCc1nnc(NC(=O)NCCN2C(=O)C3C4C=CC(C4)C3C2=O)s1 (stereo unspecified) (field: inhibition) = 0.7

response.value for COC(=O)c1ccc(CSc2nc(C(F)(F)F)c3c(c2C#N)CCC3)o1 (field: inhibition) = 3.42

response.value for Cc1ccc(-c2nc3ncccc3o2)cc1NC(=S)NC(=O)c1ccco1 (field: inhibition) = 4.38

response.value for NC(=S)Nc1nc2ccccc2[nH]c1=O (field: inhibition) = 23.5
